SYSTEM_TESTED: HCV polymerase (NS5B) type 1b (Hepatitis C virus genotype 1b, UniProt P26663)
Construct: a region encoding NS5B (J Virol 1991 March, 65(3), 1105-13, 544 amino acids after deletion of 47 amino acids on the C-terminal); 6xHis (C); made in house; host or cells: Escherichia coli
PROCEDURE_SUMMARY: Assay of enzyme (HCV polymerase) inhibitory activity, type 1b enzyme
Assay type: biochemical, HCV BK strain (type 1b)
ASSAY_SETUP: HCV polymerase inhibitory activity (IC50), 1b, type 1b enzyme 0.5 μg/ml, 25° C., 60 min
pIC50: −log10 of the molar value.

SMILES_TEXT	SYSTEM_TESTED	pIC50
Cc1csc(N2CCN(S(=O)(=O)c3ccc(C(F)(F)F)cc3)[C@@H](C(=O)NCc3ccc(C(C)C)cc3)C2)n1	HCV polymerase (NS5B) type 1b (Hepatitis C virus genotype 1b, UniProt P26663)	6.00 to 7.00
CCCc1ccc(S(=O)(=O)N2CCN(c3nc(COC)c(C(=O)O)s3)C[C@@H]2C(=O)NCc2ccc(C(C)C)cc2)cc1	HCV polymerase (NS5B) type 1b (Hepatitis C virus genotype 1b, UniProt P26663)	> 7.00
Cc1nc(N2CCN(S(=O)(=O)c3ccc(C(C)C)cc3)[C@@H](C(=O)NCc3ccc(C(C)C)cc3)C2)sc1C(=O)O	HCV polymerase (NS5B) type 1b (Hepatitis C virus genotype 1b, UniProt P26663)	> 7.00
CCC(F)(F)c1ccc(CNC(=O)[C@H]2CN(c3cnc(CN)c(N)n3)CCN2S(=O)(=O)c2ccc(OC(F)(F)F)cc2)cc1	HCV polymerase (NS5B) type 1b (Hepatitis C virus genotype 1b, UniProt P26663)	> 7.00

====

// reported IC50 per item
SYSTEM_TESTED: HCV polymerase (NS5B) type 1a (Hepatitis C virus genotype 1a)
Construct: made in house; host or cells: Escherichia coli (by the 'similar method' of the 1b enzyme)
PROCEDURE_SUMMARY: Assay of enzyme (HCV polymerase) inhibitory activity, type 1a enzyme
Assay type: biochemical, HCV type 1a (cloned from the blood of patients)
ASSAY_SETUP: HCV polymerase inhibitory activity (IC50), 1a, type 1a enzyme 1.5 μg/ml, 25° C., 60 min
Procedure: The evaluation of the HCV polymerase inhibitory activity of the compound of the present invention is explained in the following. This polymerase is an enzyme coded for by the non-structural protein region called NS5B on the genome RNA of HCV. i) Preparation of Enzyme (HCV Polymerase) […] The HCV polymerase inhibitory activity (IC50) of the compound of the present invention was calculated from the values of radioactivity of the enzyme reaction with and without the test substance. […]
Where a name gives a salt, the structure may show the parent alone.
MEASURE: IC50

MOLECULE	SYSTEM_TESTED	ASSAY_RESULT
Cc1nc(N2CCN(S(=O)(=O)c3ccc(C(F)(F)F)cc3)[C@@H](C(=O)NCc3ccc(C(C)C)cc3)C2)oc1C(=O)O [Example 371, trifluoroacetate]	HCV polymerase (NS5B) type 1a (Hepatitis C virus genotype 1a)	100 to 1000 nM
CCCc1ccc(CNC(=O)[C@H]2CN(c3nc4c(s3)CN(C)CC4)CCN2S(=O)(=O)c2ccc(OC(F)(F)F)cc2)cc1 [Example 548]	HCV polymerase (NS5B) type 1a (Hepatitis C virus genotype 1a)	< 100 nM
COc1cccc(NC(=O)N2CCN(S(=O)(=O)c3ccc(C(F)(F)F)cc3)[C@@H](C(=O)NCc3ccc(C(C)C)cc3)C2)c1 [Example 273]	HCV polymerase (NS5B) type 1a (Hepatitis C virus genotype 1a)	> 1000 nM
CCCc1ccc(S(=O)(=O)N2CCN(c3nc(C(=O)O)c(CO)s3)C[C@@H]2C(=O)NCc2ccc(C(C)C)cc2)cc1 [Example 535]	HCV polymerase (NS5B) type 1a (Hepatitis C virus genotype 1a)	< 100 nM

====

SYSTEM_TESTED: HCV polymerase (NS5B) type 1a (Hepatitis C virus genotype 1a)
Construct: made in house; host or cells: Escherichia coli (by the 'similar method' of the 1b enzyme)
PROCEDURE_SUMMARY: Assay of enzyme (HCV polymerase) inhibitory activity, type 1a enzyme
Format: biochemical, HCV type 1a (cloned from the blood of patients)
ASSAY_SETUP: HCV polymerase inhibitory activity IC50, 1a, type 1a enzyme
MEASURE: IC50

SMILES_TEXT	ASSAY_RESULT
COC1(c2ncc3sc(N4CCN(S(=O)(=O)c5ccc(OC(F)(F)F)cc5)[C@@H](C(=O)NCc5ccc(OC(F)(F)F)cc5)C4)nc3n2)CC1	< 100 nM
CCC(F)(F)c1ccc(CNC(=O)[C@H]2CN(c3cnc4cncnc4n3)CCN2S(=O)(=O)c2ccc(-c3ccccc3OCC(=O)O)cc2)cc1	< 100 nM
CCCc1ccc(CNC(=O)[C@H]2CN(C(=O)Nc3ccccc3C(=O)OCc3ccccc3)CCN2S(=O)(=O)c2ccc(OC(F)(F)F)cc2)cc1	> 1000 nM
O=C(NCc1ccc(OC(F)(F)F)cc1)[C@H]1CN(c2nc3c(=O)[nH]ncc3s2)CCN1S(=O)(=O)c1ccc(OC(F)(F)F)cc1	< 100 nM
O=C(NCc1ccc(OC(F)F)c(F)c1)[C@H]1CN(c2nc3nc(C4CC4)[nH]c(=O)c3s2)CCN1S(=O)(=O)c1ccc(OC(F)(F)F)cc1	< 100 nM
O=C(NCc1ccc(OC(F)F)cc1)[C@H]1CN(c2nc3nc(C(F)(F)F)ncc3s2)CCN1S(=O)(=O)c1ccc(C(F)(F)F)cc1	< 100 nM
CCC(F)(F)c1ccc(CNC(=O)[C@H]2CN(c3nc4cn[nH]c(=O)c4s3)CCN2S(=O)(=O)c2ccc(C(F)(F)F)cc2)cc1	< 100 nM
CCCn1cc(CNC(=O)[C@H]2CN(C(C)=O)CCN2S(=O)(=O)c2ccc(OC(F)(F)F)cc2)cn1	> 1000 nM
O=C(NCc1ccc(OC(F)(F)F)cc1)[C@H]1CN(c2nc3cn[nH]c(=O)c3s2)CCN1S(=O)(=O)c1ccc(Cl)cc1	< 100 nM
O=C(NCc1ccc2ccccc2c1)[C@H]1CN(c2nc3cn[nH]c(=O)c3s2)CCN1S(=O)(=O)c1ccc(OC(F)(F)F)cc1	< 100 nM

====

SYSTEM_TESTED: HCV polymerase (NS5B) type 1a (Hepatitis C virus genotype 1a)
Construct: made in house; host or cells: Escherichia coli (by the 'similar method' of the 1b enzyme)
PROCEDURE_SUMMARY: Assay of enzyme (HCV polymerase) inhibitory activity, type 1a enzyme
Assay type: biochemical, HCV type 1a (cloned from the blood of patients)
ASSAY_SETUP: HCV polymerase inhibitory activity (IC50), 1a, type 1a enzyme 1.5 μg/ml, 25° C., 60 min
pIC50: −log10 of the molar value. Counter-ions that a name gives are not always drawn.
MEASURE: pIC50

COMPOUND	ASSAY_RESULT
COc1ccc(CCNC(=O)[C@H]2CN(C(C)=O)CCN2S(=O)(=O)c2ccc(C(C)C)cc2)cc1	< 6.00
Cc1nc(N2CCN(S(=O)(=O)c3ccc(C(C)C)cc3)[C@@H](C(=O)NCc3ccc(C(C)C)cc3)C2)sc1C(=O)O	> 7.00
CCCc1ccc(CNC(=O)[C@H]2CN(c3cnc(CO)c(N)n3)CCN2S(=O)(=O)c2ccc(OC(F)(F)F)cc2)cc1	> 7.00
CC(C)c1ccc(CNC(=O)[C@H]2CN(c3nc([N+](=O)[O-])n[nH]3)CCN2S(=O)(=O)c2ccc(C(F)(F)F)cc2)cc1	< 6.00
CCOC(=O)c1csc(N2CCN(S(=O)(=O)c3ccc(C(C)C)cc3)C(C(=O)NCc3ccc(C(F)(F)F)cc3)C2)n1 (stereo not drawn)	< 6.00
CN(C)c1ccc(CNC(=O)[C@H]2CN(C(=O)CN)CCN2S(=O)(=O)c2ccc(I)cc2)cc1 [Example 157, hydrochloride]	< 6.00

====

SYSTEM_TESTED: HCV polymerase (NS5B) type 1a (Hepatitis C virus genotype 1a, UniProt P26664)
Construct: made in house; host or cells: Escherichia coli (by the 'similar method' of the 1b enzyme)
PROCEDURE_SUMMARY: Assay of enzyme (HCV polymerase) inhibitory activity, type 1a enzyme
Type: biochemical, HCV type 1a (cloned from the blood of patients)
ASSAY_SETUP: HCV polymerase inhibitory activity (IC50), 1a, type 1a enzyme 1.5 μg/ml, 25° C., 60 min
Structures can show the parent of a compound that is named as a salt.
Parameter: IC50. Scope: all listed entries.
MEASURE: IC50

COMPOUND	SYSTEM_TESTED	ASSAY_RESULT
CC(=O)N1CCN(S(=O)(=O)c2cc3ccccc3s2)C(C(=O)NCc2ccc(C(F)(F)F)cc2)C1 (stereo not drawn)	HCV polymerase (NS5B) type 1a (Hepatitis C virus genotype 1a, UniProt P26664)	> 1000 nM
CC(=O)N1CCN(S(=O)(=O)c2ccc(C(C)C)cc2)[C@@H](C(=O)NCCc2ccncc2)C1	HCV polymerase (NS5B) type 1a (Hepatitis C virus genotype 1a, UniProt P26664)	> 1000 nM
CC(=O)N1CCN(S(=O)(=O)c2ccc(C(C)C)cc2)[C@@H](C(=O)NCCN2CCOCC2)C1	HCV polymerase (NS5B) type 1a (Hepatitis C virus genotype 1a, UniProt P26664)	> 1000 nM
COc1ccc(S(=O)(=O)N2CCN(C(C)=O)CC2C(=O)NCc2ccc(C(F)(F)F)cc2)cc1 (stereo not drawn)	HCV polymerase (NS5B) type 1a (Hepatitis C virus genotype 1a, UniProt P26664)	> 1000 nM
CC(C)c1ccc(CNC(=O)[C@H]2CN(c3cnc(C(=O)O)cn3)CCN2S(=O)(=O)c2ccc(C(F)(F)F)cc2)cc1	HCV polymerase (NS5B) type 1a (Hepatitis C virus genotype 1a, UniProt P26664)	< 100 nM
CC(C)c1ccc(CNC(=O)[C@H]2CN(C(=O)Cn3nccn3)CCN2S(=O)(=O)c2ccc(C(F)(F)F)cc2)cc1	HCV polymerase (NS5B) type 1a (Hepatitis C virus genotype 1a, UniProt P26664)	100 to 1000 nM
CCCc1ccc(CNC(=O)[C@H]2CN(c3nc(C(F)(F)F)c(C(=O)OCC)s3)CCN2S(=O)(=O)c2ccc(OC(F)(F)F)cc2)cc1	HCV polymerase (NS5B) type 1a (Hepatitis C virus genotype 1a, UniProt P26664)	100 to 1000 nM
COC(=O)Cc1csc(N2CCN(S(=O)(=O)c3ccc(C(F)(F)F)cc3)[C@@H](C(=O)NCc3ccc(C(C)C)cc3)C2)n1	HCV polymerase (NS5B) type 1a (Hepatitis C virus genotype 1a, UniProt P26664)	< 100 nM
CCC(F)(F)c1ccc(CNC(=O)[C@H]2CN(C(=O)Nc3ccnc(CO)c3)CCN2S(=O)(=O)c2ccc(OC(F)(F)F)cc2)cc1	HCV polymerase (NS5B) type 1a (Hepatitis C virus genotype 1a, UniProt P26664)	< 100 nM
CCCc1ccc(S(=O)(=O)N2CCN(C(C)=O)C[C@@H]2C(=O)NCc2ccc(C(C)C)cc2)s1	HCV polymerase (NS5B) type 1a (Hepatitis C virus genotype 1a, UniProt P26664)	< 100 nM
CCCc1ccc(CNC(=O)[C@H]2CN(c3nc(C)c(C(=O)O)s3)CCN2S(=O)(=O)c2ccc(OC(F)(F)F)cc2)c(C)c1	HCV polymerase (NS5B) type 1a (Hepatitis C virus genotype 1a, UniProt P26664)	< 100 nM
CCCc1ccc(CNC(=O)[C@H]2CN(c3nc(C)c(CO)s3)CCN2S(=O)(=O)c2ccc(OC(F)(F)F)cc2)cc1	HCV polymerase (NS5B) type 1a (Hepatitis C virus genotype 1a, UniProt P26664)	< 100 nM
CC(C)c1ccc(CNC(=O)[C@H]2CN(c3cnc(C(N)=O)cn3)CCN2S(=O)(=O)c2ccc(C(F)(F)F)cc2)cc1	HCV polymerase (NS5B) type 1a (Hepatitis C virus genotype 1a, UniProt P26664)	< 100 nM
CC(=O)N1CCN(S(=O)(=O)c2ccc(N3CCOCC3)nc2)C(C(=O)NCc2ccc(C(F)(F)F)cc2)C1 (stereo not drawn) [Example 70, hydrochloride]	HCV polymerase (NS5B) type 1a (Hepatitis C virus genotype 1a, UniProt P26664)	> 1000 nM
COc1ccc(CNC(=O)[C@H]2CN(c3cnc4cncnc4n3)CCN2S(=O)(=O)c2ccc(OC(F)(F)F)cc2)cc1	HCV polymerase (NS5B) type 1a (Hepatitis C virus genotype 1a, UniProt P26664)	< 100 nM
CCC(F)(F)c1ccc(CNC(=O)[C@H]2CN(c3cnc(CN)c(N)n3)CCN2S(=O)(=O)c2ccc(OC(F)(F)F)cc2)cc1	HCV polymerase (NS5B) type 1a (Hepatitis C virus genotype 1a, UniProt P26664)	< 100 nM
CC(=O)c1ccc(S(=O)(=O)N2CCN(C(C)=O)CC2C(=O)NCc2ccc(C(F)(F)F)cc2)cc1 (stereo not drawn)	HCV polymerase (NS5B) type 1a (Hepatitis C virus genotype 1a, UniProt P26664)	> 1000 nM
CC(C)c1ccc(CNC(=O)[C@H]2CN(c3cc(C(=O)O)ccn3)CCN2S(=O)(=O)c2ccc(C(F)(F)F)cc2)cc1 [Example 349, trifluoroacetate]	HCV polymerase (NS5B) type 1a (Hepatitis C virus genotype 1a, UniProt P26664)	> 1000 nM
